# pIC50 listing for each entry below
Test system: MEF-IGF1R cells
Test name: Proliferation/viability of MEF-IGF1R (Thymidine [14C] incorporation)
Format: cell-based
Condition info: rhIGF1 100 ng/mL, incubation 72 hours, read-out: Test C IC50
pIC50: −log10 of the molar value.
Property name: pIC50

INSERT INTO measurements (molecule, experimental_target, data_value) VALUES
  ('CC1(C)C(=O)N(c2ccc(SC(F)(F)F)cc2)C(=O)N1Cc1ccnc(Nc2cc(F)ccc2F)c1', 'MEF-IGF1R cells', '7.00 to 8.00'),
  ('CC1(C)C(=O)N(c2ccc(SC(F)(F)F)cc2)C(=O)N1Cc1ccnc(NC(=O)N2CCOCC2)c1', 'MEF-IGF1R cells', '7.00 to 8.00'),
  ('CC1(C)C(=O)N(c2ccc(SC(F)(F)F)cc2)C(=O)N1Cc1ccnc(Nc2ccc(Cl)nc2)c1 [Example 40F]', 'MEF-IGF1R cells', '< 7.00'),
  ('CN(C)CCCNC(=O)Nc1cc(CN2C(=O)N(c3ccc(SC(F)(F)F)cc3)C(=O)C2(C)C)ccn1 [Example 38]', 'MEF-IGF1R cells', '< 7.00'),
  ('CC1(C)C(=O)N(c2ccc(SC(F)(F)F)cc2)C(=O)N1Cc1ccnc(NC2CC2)c1 [Example 40D]', 'MEF-IGF1R cells', '< 7.00'),
  ('CC1(C)C(=O)N(c2ccc(SC(F)(F)F)cc2)C(=O)N1Cc1ccnc(NC(=O)NC2CC2)c1', 'MEF-IGF1R cells', '7.00 to 8.00'),
  ('CC1(C)C(=O)N(c2ccc(SC(F)(F)F)cc2)C(=O)N1Cc1ccnc(Nc2cncc(F)c2)c1', 'MEF-IGF1R cells', '< 7.00');

* * *

Experimental target: human cytoplasmic domain of IGF-1R (Homo sapiens, UniProt P08069)
Construct: The human cytoplasmic domain of IGF-1R was cloned by fusion with glutathione S-transferase (GST); made in house; host or cells: SF21 insect cells (baculovirus, pFastBac-GST)
Sequence (P08069 960-1367 limits assumed): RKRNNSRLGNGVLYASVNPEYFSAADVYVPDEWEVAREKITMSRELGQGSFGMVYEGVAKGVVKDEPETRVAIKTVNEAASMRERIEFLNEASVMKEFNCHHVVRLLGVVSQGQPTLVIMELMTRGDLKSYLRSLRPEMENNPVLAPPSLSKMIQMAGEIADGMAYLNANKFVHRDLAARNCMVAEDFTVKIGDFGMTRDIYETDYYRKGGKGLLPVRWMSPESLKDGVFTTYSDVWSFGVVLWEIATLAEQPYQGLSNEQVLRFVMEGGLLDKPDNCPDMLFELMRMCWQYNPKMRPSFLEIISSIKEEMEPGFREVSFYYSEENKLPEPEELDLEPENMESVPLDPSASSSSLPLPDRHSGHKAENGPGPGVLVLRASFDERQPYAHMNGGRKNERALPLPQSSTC
Test name: Kinase IGF-1R test: inhibition of autophosphorylation of the enzyme (HTRF)
Assay type: biochemical
Condition info: preincubation 90 minutes with 5 nM enzyme, ATP 120 μM; read-out: Test A 90′ IC50
# IC50 listing for each entry below
Property name: IC50

INSERT INTO measurements (compound, property_name, data_value) VALUES
  ('CCCCNC(=O)Nc1cc(CN2C(=O)N(c3ccc(SC(F)(F)F)cc3)C(=O)C2(C)C)ccn1', 'IC50', '10 to 100 nM'),
  ('CC1(C)C(=O)N(c2ccc(SC(F)(F)F)cc2)C(=O)N1Cc1ccnc(NC(=O)N2CCCC2)c1', 'IC50', '10 to 100 nM'),
  ('CC1(C)C(=O)N(c2ccc(SC(F)(F)F)cc2)C(=O)N1Cc1ccnc(NC(N)=O)c1 [Example 40A]', 'IC50', '< 10 nM'),
  ('CC1(C)C(=O)N(c2ccc(SC(F)(F)F)cc2)C(=O)N1Cc1ccnc(NC(=O)NC2CCCCC2)c1', 'IC50', '10 to 100 nM'),
  ('Cc1ccc(F)c(C(=O)Nc2cc(CN3C(=O)N(c4ccc(SC(F)(F)F)cc4)C(=O)C3(C)C)ccn2)c1Cl', 'IC50', '10 to 100 nM'),
  ('CC1(C)C(=O)N(c2ccc(SC(F)(F)F)cc2)C(=O)N1Cc1ccnc(Nc2cncnc2)c1', 'IC50', '> 100 nM'),
  ('CC1(C)C(=O)N(c2ccc(SC(F)(F)F)cc2)C(=O)N1Cc1ccnc(NC(=O)c2ccc(Cl)c(Cl)c2)c1', 'IC50', '> 100 nM'),
  ('CC1(C)C(=O)N(c2ccc(SC(F)(F)F)cc2)C(=O)N1Cc1ccnc(Nc2cc(Cl)ccc2Cl)c1', 'IC50', '> 100 nM');

All values here come from patent US20090082329A1.
